# Test system: adult cat fleas (Ctenocephalides felis)
# measurementNotes: Ctenocephalides felis in-vitro contact test, adult cat flea
# Type: in vivo
# testContext: application rate 5 μg/cm^2 (=500 g/ha), after 48 hours, read-out: activity (efficacy: fleas dead or moribund)
This listing pairs compounds with measured pest or weed control at 5 µg/cm2.
endpoint: pest or weed control at 5 µg/cm2 (%)

{"chemicalString": "COc1nc([C@H](C)NC(=O)c2cc(Cl)cc(S(C)(=O)=O)c2)n(-c2ccc(C#N)cn2)n1", "endpoint": "pest or weed control at 5 µg/cm2", "valueMeasured": 100}
{"chemicalString": "C[C@H](NC(=O)c1cc(C#N)cc(S(C)(=O)=O)c1)c1ncnn1-c1ccc(C#N)cn1", "endpoint": "pest or weed control at 5 µg/cm2", "valueMeasured": 90}
{"chemicalString": "CSc1cc(C#N)cc(C(=O)N[C@@H](C)c2ncnn2-c2ccc(C#N)cn2)c1", "endpoint": "pest or weed control at 5 µg/cm2", "valueMeasured": 100}
{"chemicalString": "C[C@H](NC(=O)c1cc(Br)cc(S(C)(=O)=O)c1)c1ncnn1-c1ccc(C#N)cn1", "endpoint": "pest or weed control at 5 µg/cm2", "valueMeasured": 100}
{"chemicalString": "C[C@H](NC(=O)c1cc(Cl)cc(C2(C#N)CC2)c1)c1ncnn1-c1cc(C#N)ccn1", "endpoint": "pest or weed control at 5 µg/cm2", "valueMeasured": 80}
{"chemicalString": "C[C@H](NC(=O)c1cc(C2CC2)cc(C(F)(F)F)c1)c1ncnn1-c1ccc(C#N)cn1", "endpoint": "pest or weed control at 5 µg/cm2", "valueMeasured": 90}
{"chemicalString": "Cc1nc([C@H](C)NC(=O)c2cc(C(F)(F)F)n(C)n2)n(-c2ncccn2)n1", "endpoint": "pest or weed control at 5 µg/cm2", "valueMeasured": 100}
{"chemicalString": "Cc1nc([C@H](C)NC(=O)c2cc(OC(F)(F)F)cc(C3CC3)c2)n(-c2ccc(C#N)cn2)n1", "endpoint": "pest or weed control at 5 µg/cm2", "valueMeasured": 100}

====

This listing pairs molecules with measured pest or weed control at 5 µg/cm2, 500 g/ha.
# Test system: adult brown dog ticks (Rhipicephalus sanguineus)
# measurementNotes: Rhipicephalus sanguineus in-vitro contact test, adult brown dog ticks
# Format: in vivo
# testContext: application rate 5 μg/cm^2 (=500 g/ha), after 48 hours, read-out: activity (efficacy: ticks dead or moribund)
endpoint: pest or weed control at 5 µg/cm2, 500 g/ha (%)

{"molecule": "C[C@H](NC(=O)c1cc(OC(F)(F)F)cc(C2CC2)c1)c1ncnn1-c1ccc(Cl)cn1", "assayedSystem": "adult brown dog ticks (Rhipicephalus sanguineus)", "valueMeasured": 100}
{"molecule": "CC(NC(=O)c1cc(C(F)(F)F)n(C)n1)c1nc(Cl)nn1-c1ccc(C#N)cn1 (centres unmarked)", "assayedSystem": "adult brown dog ticks (Rhipicephalus sanguineus)", "valueMeasured": 80}
{"molecule": "C[C@H](NC(=O)c1cc(C2CC2)cc(C(F)(F)F)c1)c1ncnn1-c1ccc(C#N)cn1", "assayedSystem": "adult brown dog ticks (Rhipicephalus sanguineus)", "valueMeasured": 100}
{"molecule": "Cc1nc([C@H](C)NC(=O)c2cc(C(F)(F)F)cc(C3(C#N)CC3)c2)n(-c2ccc(Cl)cn2)n1", "assayedSystem": "adult brown dog ticks (Rhipicephalus sanguineus)", "valueMeasured": 100}
{"molecule": "C[C@H](NC(=O)c1cc(C(F)(F)F)cc(S(=O)(=O)C2CC2)c1)c1nc(C2CC2)nn1-c1ccc(C#N)cn1", "assayedSystem": "adult brown dog ticks (Rhipicephalus sanguineus)", "valueMeasured": 100}
{"molecule": "C[C@H](NC(=O)c1cc(Cl)cc(S(C)(=O)=O)c1)c1nc(C2CC2)nn1-c1ccc(Cl)cn1", "assayedSystem": "adult brown dog ticks (Rhipicephalus sanguineus)", "valueMeasured": 80}
{"molecule": "C[C@H](NC(=O)c1cc(Br)cc(S(C)(=O)=O)c1)c1ncnn1-c1ccc(C#N)cn1", "assayedSystem": "adult brown dog ticks (Rhipicephalus sanguineus)", "valueMeasured": 100}
{"molecule": "C[C@H](NC(=O)c1cc(C(F)(F)F)cc(S(=O)(=O)C2CC2)c1)c1ncnn1-c1ccc(C#N)cn1", "assayedSystem": "adult brown dog ticks (Rhipicephalus sanguineus)", "valueMeasured": 100}
